Tested on: Viola tricolor
Assay: Post-emergence herbicidal action
Type: in vivo
Conditions: 1280 g/ha, rated visually after about 3 weeks vs untreated controls
Description: A. Post-Emergence Herbicidal Action and Crop Plant Compatibility Seeds of monocotyledonous and dicotyledonous weeds and crop plants were placed in sandy loam in plastic or wood-fiber pots, covered with soil and cultivated in a greenhouse under controlled growth conditions. 2 to 3 weeks after sowing, the test plants were treated at the one-leaf stage. […]
measure: herbicidal activity on Viola tricolor (%)
Express it in %; write the number only.

Need herbicidal activity on Viola tricolor, item CCc1c(Sc2cccc(Cl)c2)c(Oc2ncc(F)cn2)nn1C [Example I-034]
100

Need herbicidal activity on Viola tricolor, item Cc1c(Sc2ccccc2)c(Oc2ncccn2)nn1C [Example I-126]
100

Need herbicidal activity on Viola tricolor, item CCc1c(Sc2ccc(F)cc2)c(Oc2ncccn2)nn1C [Example I-064]
100

Need herbicidal activity on Viola tricolor, item COc1cnc(Oc2nn(C)c(C)c2Sc2ccc(Cl)cc2)nc1 [Example I-066]
100

Need herbicidal activity on Viola tricolor, item CCc1c(Sc2ccc(F)cc2)c(Oc2ncc(F)cn2)nn1C [Example I-183]
100

Need herbicidal activity on Viola tricolor, item Cc1c(Sc2cccc(Cl)c2)c(Oc2ncccn2)nn1C [Example I-069]
100

Need herbicidal activity on Viola tricolor, item CCc1c(Sc2ccc(F)cc2F)c(Oc2ncc(F)cn2)nn1C [Example I-094]
100

Need herbicidal activity on Viola tricolor, item Cc1c(Sc2ccc(F)c(F)c2)c(Oc2ncccn2)nn1C [Example I-036]
100

Need herbicidal activity on Viola tricolor, item CCc1c(Sc2cccc(F)c2)c(Oc2ncc(F)cn2)nn1C [Example I-203]
100

Need herbicidal activity on Viola tricolor, item Cn1cc(Sc2ccc(Cl)cc2)c(Oc2cnc(Cl)nc2)n1 [Example I-230]
80

Need herbicidal activity on Viola tricolor, item Cc1c(Sc2ccc(F)c(F)c2)c(Oc2cnccn2)nn1C [Example I-141]
90
